Assay: soluble on expression in E. coli; label from the status in PepcDB or PDB records
PROPERTY_MEASURED: soluble on expression in E. coli

CONSTRUCT_SEQUENCE: MGSDKIHHHHHHMSVAEPNSHTQRNQPRPIRVGVIGVGNMGQHHTRVLSSMKDVELVGVSDINVERGLETASKYKVRFFEDYCDLLPHVEAVCIAVPTRLHYAVGINCLLAGIHVLIEKPIAASISEAESLVNAAAESQCILQVGHIERFNPAFRELSKVMKTEEVLALEAHRMSPYSDRANDVSVVLDLMIHDIDLLLELAASPVTKLTASGTRALDSGYLDYVTATLGFANGIVATLTASKVTHRKIRRIVAHCKNSFTEADFLKNEILIHRQTSASPVNDHRHYRQDGLIEKVYTTNIQPLSAELEHFVNCVHGGNQPSVGGEQALKALRLASLIEQMALEERVWNPLDWQSESRVQSLTQSV
MEASURED: not soluble
--
CONSTRUCT_SEQUENCE: MKTFGLLGGLAYPSTAEYYLKINRQVHATLGKHHSAPLWIHSFDFEPIAQAQASGSWTILEEKLLQAALELERLGCQGLAIASNTMHLLAPALEGALSIPLVHIADSVGEESSLKGYKKLALLGTLFTMEKDFYASRLQERFDLEVITPAKEERNLVHECIYRELVNNIFTEDSRRDFIQIIHGLKERGAEAVILGCTEIPLLLEGASSPLPLLDTMELHVGSIVQSILEI
MEASURED: not soluble
--
CONSTRUCT_SEQUENCE: MGSDKIHHHHHHMRVSSDDALFYRIEAFFRGRAYGPHRHDTYAVGITTAGIQSIRYRGELVHSSPGDTVVIHPDEIHDGRAGTVAGYCYRIVHLQPEALQQILGQTSLPFIKEGVSQNAQLYQAIWAMLREFDRPLEPLERTDLLFDLAMALQAAAGTAKAKHTGNIKAALIARDCIRSAPSQRIELDVLARESGRDRWSLSRDFRQFFGTSPSRYMTMRRLDIARRLMSNGTPLAECAVAVGFADQSHMSRQFVEAFGLTPTRWLTMLR
MEASURED: not soluble
--
CONSTRUCT_SEQUENCE: MAHHHHHHMCVSVCACARPCSLLISLFEKRQHGWGCCNSFTFEHVCSADAVRCLFFFVCDSPSSSLPPSLFTRHSPLLFSSCPFACPSSVHPQRQDNTRRRAEQPCAQALWIRRGINRIGNLLVPNDNYCWFEDFFTPVLESVQEAQRASRWKTHTAPSEFIEAMGAAIAKNHPDTCTSSLVYWCYRNGISVFSPAFTDGSMGDMIYFYNFSHKGLVVDPLEDVVRLRKLAAKEKGRNLAIVLGGGLPKHHLLRNVSMDAVVMVTTGLEADGCVSSGVLADDVACGLLREETETVRVQGDATVVFPLMLIAEKAATLEGAAA
MEASURED: not soluble
--
CONSTRUCT_SEQUENCE: MGSDKIHHHHHHMRVKHFELLTDEGKTFTHVDLYGKYTILFFFPKAGTSGCTREAVEFSRENFEKAQVVGISRDSVEALKRFKEKNDLKVTLLSDPEGILHEFFNVLENGKTVRSTFLIDRWGFVRKEWRRVKVEGHVQEVKEALDRLIEEDLSLNKHIEWRRARRALKKDRVPREELELLIKAAHLAPSCMNNQPWRFVVVDEEELLKKIHEALPGGNYWMKNAPALIAVHSKKDFDCALPDNRDYFLFDTGLAVGNLLVQATQMGLVAHPVAGYDPVKVKEILKIPEDHVLITLIAVGYLGDESELSEKHRELERSERVRKELSEIVRWNL
MEASURED: not soluble

====

Assay: soluble on expression in E. coli; label from the status in PepcDB or PDB records

CONSTRUCT_SEQUENCE: GPLGSMTTKQTVSLFIWLPESKQKTLFISTKNHTQFELNNIIFDVTLSTELPDKEPNAIITKRTHPVGKMADEMRKYEKDHPKVLFLESSAIHDMMSSREEINALLIKNNIPIPNSFSVKSKEEVIQLLQSKQLILPFIVKPENAQGTFNAHQMKIVLEQEGIDDIHFPCLCQHYINHNNKIVKVFCIGNTLKWQTRTSLPNVHRCGIKSVDFNNQHLEDILSWPEGVIDKQDIIENSANRFGSKILEDPILLNLTSEAEMRDLAYKVRCALGVQLCGIDFIKENEQGNPLVVDVNVFPSYGGKVDFDWFVEKVALCYTEVAKI
soluble on expression in E. coli: soluble
--
CONSTRUCT_SEQUENCE: MKGITSLGSKWFVEFEKNNVHNVYDRIAEHFTKTRYRIWPGVELFLKQTSPLDTVLDVGCGNGKNLISYRNLFCIGIDRCVPLVKTCKQRQLETAVADILELPFQSEKFDIVLCIAVLHHLCTRERRILAIQELGRVLRPGGSCLLYVWAANENDGKDEVKNTKAREKMRFLDENKQEALIPWVVIDHEKKATQLEKNLKQPSTFTLERYYHLYRQGELEEECLQSNCFHIQHSYYEQSNWCVVLDKKS
soluble on expression in E. coli: soluble

====

Test: soluble on expression in E. coli; label from the status in PepcDB or PDB records
PROPERTY_MEASURED: soluble on expression in E. coli

CONSTRUCT_SEQUENCE: MSLNISFIASNTLHELAAFLEKLNNIREHHVGFCGEKGSEIKATLERDFSDIGVSKSFIVGYDGMEIKGAVGLDVDTKEESAEVWGPFVDEDDPEMWLDTATILWQQLIDSLTVPVSTFQFFINQHNVNAKKFILKLNGMEKGDHDILTCDRTQFYPPLNHDVRLFTNNHTQSFKKLHDSLFPQTYYDAEEILKKINEPTNKLLIIEKEQIVIGYAYVEVEPEHGEGQIEYIGIAPDYRRQGLATQLLTNALHVLFSYPTVEDITLCVSKQNTKAIRLYQAAGFKKERQLTYFELNVDGLDNRRGRGEGHHHHHH
MEASURED: soluble
//
CONSTRUCT_SEQUENCE: MDLASNLGGKIDKSDVLTAVEKYEQYHVFHGGNEEERKANYTDMVNKYYDLATSFYEYGWGESFHFAQRWKGESLRESIKRHEHFLALQLGIQPGQKVLDVGCGIGGPLREIARFSNSVVTGLNNNEYQITRGKELNRLAGVDKTCNFVKADFMKMPFPENSFDAVYAIEATCHAPDAYGCYKEIYRVLKPGQCFAAYEWCMTDAFDPDNAEHQKIKGEIEIGDGLPDIRLTTKCLEALKQAGFEVIWEKDLAKDSPVPWYLPLDKNHFSLSSFRLTAVGRFITKNMVKILEYIRLAPQGSQRVSNFLEQAAEGLVDGGRREIFTPMYFFLARKPE
MEASURED: soluble
//
CONSTRUCT_SEQUENCE: MSLKLSAREWKDFSLEELFTVRGTKTTPLIILRKNNKKREKQLPYVTTKSTYNGIDDFFSGFTEEGNVITIDSATDGYVFYQLNNFSASDHVEKLIPKFKLNKYIALFLVNCIKKATKCKYGYGYKFSQTRIKRQKIMLPASNNQPDFQFMERYIKEKHFNLKSRIKEKQNHEINDWRELDDVEWTPFSTSEVFNNIQRGKRLTKSNQIKGLTPYISSSGINNGLDNFISNNEKIREFDNCLTIANSGSVGSAFYHTYRFIASDHVTHLKNNNLNKFSYLFIANMLRRLEGKYSFNRGINDFRIKRERILLPTKNNRPEYEFMEQYMKRKENEILDRLEGHHHHHH
MEASURED: not soluble
//
CONSTRUCT_SEQUENCE: MAHHHHHHMVVPVMNMTREPAVDSPENSRKISLAGYPEVAGLFCVTVFKSTLDLEVRDCCGLLTLDGVGKCVELKKFSISNCGMLTNISDLKDCVNLEMLTLSGCKTLRNLTPLKGHRTLSCITISHCERMMELDLEGATNLMQLNISDCEELKDVHVSRCTRLEVIDIHDCVKLEKLHGLTYLRELKTLILAGNRELSAVEGINELINRVEKLSLKNCEKLEDLKFLDFCNFLKEVVVAGSNVTEEKKQELRGKGVRIVNEVKVADG
MEASURED: not soluble
//
CONSTRUCT_SEQUENCE: MAHHHHHHMPSWCLIESDPAVFTELIQRFGAQGVAVEEIVQLEQEYLRVHTNVYGLILLFKWKARKEGAATDGVVVPDAPVFFVQQTVNNACATLSIVNILLNHKESIELGEVLGNFLSFTQDMNPYLRGTQVGECDALREAHNSFAPVELFSLDHSVPDAGDAYHFVSFVYKNSAIWELDGLQEGPILASDASDENYRDKLMEVVRKRIRDHSAEDTTGAGQGISFSLMAVVDDPLVLLERRIYEATLQEAPTHYLEEQLNQLTKQRAREKLENQRRRHNYVPMIVELLKALAEKGQLKGILDDALAKKSGQGAKQ
MEASURED: soluble
